- protocolDescription: Pharmacokinetics of vigabatrin after iv or oral administration to rats
- Assay type: in vivo, male Sprague–Dawley rats
- assaySetup: male, Sprague-Dawley, rat, plasma, iv, 1 mg/kg
quantityKind: clearance (mL/min/kg)
Give a bare numeral; the unit mL/min/kg is implied.

Request: Entry C=CC(N)CCC(=O)O (stereo not shown) has what clearance?
Result: 7.1

----------
- protocolDescription: Pharmacokinetics of vigabatrin after iv or oral administration to rats
- Assay type: in vivo, male Sprague–Dawley rats
- assaySetup: male, Sprague-Dawley, rat, plasma, po, 10 mg/kg, tmax, median [Q1; Q3]; rats, vigabatrin 10 mg kg^−1 PO, formulation 7, dietary component none
quantityKind: Tmax (min)
Could you give me the number in min? Just the number is fine.

Request: Quick one: Tmax of C=CC(N)CCC(=O)O (stereo not shown) ?
Result: 19.8

----------
- protocolDescription: Paracellular flux: A–B transport of [14C]-mannitol across Caco-2 cell monolayers
- Type: in vitro ADME
- assaySetup: human
quantityKind: Papp (×10⁻⁶ cm/s)
Write down the numeric answer in ×10⁻⁶ cm/s and omit the unit.

Request: Request the reported Papp associated with OC[C@@H](O)[C@@H](O)[C@H](O)[C@H](O)CO [mannitol, D-[1-^14C]-mannitol]
Result: 0.16

----------
- protocolDescription: Pharmacokinetics of acetaminophen
- Format: in vivo, male Sprague–Dawley rats
- assaySetup: male, Sprague-Dawley, rat, plasma, iv, 120 mg/kg, ke, rats, acetaminophen 120 mg kg^−1 iv, formulation 00, dietary component none
quantityKind: k el (s⁻¹)
Express your answer in s⁻¹, writing the number without its unit.

Request: Field request: k el | item: CC(=O)Nc1ccc(O)cc1 [acetaminophen]
Result: 0.000306

----------
- protocolDescription: Pharmacokinetics of acetaminophen
- Type: in vivo, male Sprague–Dawley rats
- assaySetup: male, Sprague-Dawley, rat, plasma, iv, 120 mg/kg, AUC0–∞, rats, acetaminophen 120 mg kg^−1 iv, formulation 00, dietary component none
quantityKind: AUC(0-inf) (µg·h/mL)
Answer format: numeric, µg·h/mL implied, no suffix.

Request: // query AUC(0-inf) value for entry CC(=O)Nc1ccc(O)cc1 [acetaminophen]
Result: 155
